Data credit: patent US5428041A

- target-or-system: Acyl-CoA: Cholesterol Acyltransferase (ACAT) (Rattus norvegicus, UniProt Q7TQM4)
- Construct: centrifuged at 105,000×g for 1 hour to pellet the microsomes; from tissue; host or cells: liver microsomes of fasted male Sprague Dawley rats
- Sequence (Q7TQM4 1-524): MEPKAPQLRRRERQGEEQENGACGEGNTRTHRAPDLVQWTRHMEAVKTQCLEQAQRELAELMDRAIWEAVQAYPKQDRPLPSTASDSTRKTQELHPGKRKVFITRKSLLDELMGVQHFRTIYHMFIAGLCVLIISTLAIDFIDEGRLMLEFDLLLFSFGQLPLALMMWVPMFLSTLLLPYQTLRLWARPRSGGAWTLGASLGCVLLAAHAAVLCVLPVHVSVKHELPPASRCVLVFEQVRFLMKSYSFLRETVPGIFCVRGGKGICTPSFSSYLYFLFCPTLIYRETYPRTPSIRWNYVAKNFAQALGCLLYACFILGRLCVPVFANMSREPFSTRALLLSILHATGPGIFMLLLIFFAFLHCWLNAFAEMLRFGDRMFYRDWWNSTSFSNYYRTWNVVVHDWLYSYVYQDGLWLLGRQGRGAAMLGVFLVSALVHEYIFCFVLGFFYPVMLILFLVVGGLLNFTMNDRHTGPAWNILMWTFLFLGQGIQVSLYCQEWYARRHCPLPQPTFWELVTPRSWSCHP
- test-details: Inhibition of Acyl-CoA:Cholesterol Acyltransferase (ACAT) in hepatic microsomes
- Format: biochemical, Sprague Dawley rat
- settings: rat hepatic microsomes, 14C-oleoyl-CoA, 37° C., pH 7.4; read-out: In Vitro ACAT IC50
Structures can show the parent of a compound that is named as a salt.
Reported IC50 is given for each of the following molecules.
Please reply with the bare figure in µM and do not write the unit itself.

>>> number("CCCCCCC(=O)N(C)C1N(C)C(c2ccc(F)cc2)=NC1(C(F)(F)F)C(F)(F)F (stereo not drawn) [Example 16, hydrochloride]")
2

Enquiry: Quick one: IC50 of CN(C(=O)c1ccc(C(C)(C)C)cc1)C1N(C)C(c2ccc(F)cc2)=NC1(C(F)(F)F)C(F)(F)F (stereo not drawn) ?
Return: 4

Enquiry: Another molecule to check: CN(C(=O)c1ccc(C#N)cc1)C1N(C)C(c2ccc(C#N)cc2)=NC1(C(F)(F)F)C(F)(F)F (stereo not drawn)
Return: 2

Enquiry: Another molecule to check: CN1C(c2ccc(N3CCCCC3)cc2)=NC(C(F)(F)F)(C(F)(F)F)C1NC(=O)c1ccc(F)cc1 (stereo not drawn)
Return: 2

Enquiry: Another molecule to check: COc1ccc(C(=O)N(C)C2N(C)C(c3ccc(F)cc3)=NC2(C(F)(F)F)C(F)(F)F)cc1 (stereo not drawn)
Return: 6

Enquiry: Another molecule to check: CN1C(=CC(=O)c2ccc(F)cc2)C(C(F)(F)F)(C(F)(F)F)N=C1c1ccc(F)cc1 [Example 96B]
Return: 19

Enquiry: Another molecule to check: Cc1ccc(C(=O)N=C2N(C)C(c3ccc(C)cc3)=NC2(C(F)(F)F)C(F)(F)F)cc1
Return: 20

Enquiry: Another molecule to check: CN(C(=O)c1ccc(F)cc1)C1N(C)C(c2ccc(F)cc2)=NC1(C(F)(F)F)C(F)(F)F (stereo not drawn) [Example 10A]
Return: 22

---

- target-or-system: Acyl-CoA: Cholesterol Acyltransferase (ACAT) (Rattus norvegicus)
- Construct: centrifuged at 105,000×g for 1 hour to pellet the microsomes; from tissue; host or cells: liver microsomes of fasted male Sprague Dawley rats
- test-details: Inhibition of Acyl-CoA:Cholesterol Acyltransferase (ACAT) in hepatic microsomes
- Type: biochemical, Sprague Dawley rat
- settings: rat hepatic microsomes, 14C-oleoyl-CoA, 37° C., pH 7.4; read-out: In Vitro ACAT IC50
pIC50: −log10 of the molar value. Structures can show the parent of a compound that is named as a salt.
Quick rule for you: pIC50 at 5 or higher means label 1, lower means label 0.

Sample answers from the record:
>>> label_value("CN1C(=O)C(C(F)(F)F)(C(F)(F)F)N=C1c1ccc(F)cc1")
"label 0"
>>> label_value("CN1C(c2ccc(F)cc2)=NC(C(F)(F)F)(C(F)(F)F)C1=NC(=O)c1ccc(F)cc1")
"label 0"
>>> label_value("CN(C(=O)c1ccc(-c2ccccc2)cc1)C1N(C)C(c2ccc(F)cc2)=NC1(C(F)(F)F)C(F)(F)F (stereo not shown)")
"label 0"
>>> label_value("CCOc1ccc(C(=O)NC2N(C)C(c3ccc(F)cc3)=NC2(C(F)(F)F)C(F)(F)F)cc1 (stereo not shown)")
"label 1"

Enquiry: Determine whether this compound has pIC50 no lower than 5: CN1C(c2ccc(F)cc2)=NC(C(F)(F)F)(C(F)(F)F)C1NC(=O)c1ccc(F)cc1 (stereo not shown)
Return: label 0

Enquiry: Another compound to check: CCCCCCCCCCCC(=O)N(C)C1N(C)C(c2ccc(F)cc2)=NC1(C(F)(F)F)C(F)(F)F (stereo not shown)
Return: label 1

Enquiry: Another compound to check: CC(C)CCCC(=O)N(C)C1N(C)C(c2ccc(F)cc2)=NC1(C(F)(F)F)C(F)(F)F (stereo not shown) [Example 18, hydrochloride]
Return: label 1

Enquiry: Another compound to check: CN(C(=O)Nc1ccc(F)cc1F)C1N(C)C(c2ccc(F)cc2)=NC1(C(F)(F)F)C(F)(F)F (stereo not shown)
Return: label 0
